biological target: T1, human SIRPα variant 1 (human, UniProt P78324 31-504); test: CELISA, CHO-K1 transfectants; average of two experiments
T1 construct: full length ORF on transfected CHO-K1 or HEK293 cells; entry includes the signal peptide; also called hSIRPαV1; SIRPαV1
T1 sequence (P78324 31-504 limits assumed, change not shown): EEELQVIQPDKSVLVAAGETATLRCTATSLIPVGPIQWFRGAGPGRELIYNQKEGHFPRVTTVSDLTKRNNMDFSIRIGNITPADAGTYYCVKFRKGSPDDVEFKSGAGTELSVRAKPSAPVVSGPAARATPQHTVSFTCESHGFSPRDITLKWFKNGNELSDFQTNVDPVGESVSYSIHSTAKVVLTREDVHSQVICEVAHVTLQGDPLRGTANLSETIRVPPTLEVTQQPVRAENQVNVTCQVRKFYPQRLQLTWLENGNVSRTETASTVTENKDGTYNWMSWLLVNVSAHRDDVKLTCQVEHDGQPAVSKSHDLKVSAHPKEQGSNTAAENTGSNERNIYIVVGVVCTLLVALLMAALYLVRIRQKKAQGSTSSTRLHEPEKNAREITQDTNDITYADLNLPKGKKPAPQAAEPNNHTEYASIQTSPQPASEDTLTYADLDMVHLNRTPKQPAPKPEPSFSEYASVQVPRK
QUANTITY: EC50 (nM)
Record the value in nM, omitting the unit from your answer.

Request: Recorded EC50 for hSIRPα.50A.H3L1 (antibody, human IgG4 S228P, kappa, V domains shown, human IgG4 S228P, kappa; also called hSIRPα.50H3L1) VH: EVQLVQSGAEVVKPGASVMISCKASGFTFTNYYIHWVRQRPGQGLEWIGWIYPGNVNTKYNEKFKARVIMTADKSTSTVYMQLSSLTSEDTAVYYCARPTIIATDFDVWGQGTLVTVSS VL: DIVLTQSPSFLSASVGDRVTITCKASQGVGTAVGWYQQKPGKAPKLLIYWASTRHTGVPDRFSGSGSGTEFTLTISSLQPEDFAAYYCQQYSTYPFTFGGGTKLEIKR , please?
Response: 1.1

Request: Suppose we examine the binder hSIRPα.50A.H5L4 (antibody, human IgG4 S228P, kappa, V domains shown, human IgG4 S228P, kappa; also called hSIRPα.50H5L4) VH: EVQLVQSGAEVVKPGASVKVSCKASGFTFTNYYIHWVRQAPEQGLEWIGWIYPGNVNTKYNEKFKARVTMTADKSTSTAYMELSSLRSDDMAVYYCARPTIIATDFDVWGQGTTVTVSS VL: DIQMTQSPSSLSASVGDRVTITCKASQGVGTAVGWYQKKPGKVPKLLIYWASTRHTGVPDRFSGSGSGTDFTLTINGLQPEDVATYYCQQYSTYPFTFGGGTKLEIKR ; what EC50 value has been reported?
Response: 1.17

Request: # input binder: hSIRPα.50A.H5L3 (antibody, human IgG4 S228P, kappa, V domains shown, human IgG4 S228P, kappa; also called hSIRPα.50H5L3) VH: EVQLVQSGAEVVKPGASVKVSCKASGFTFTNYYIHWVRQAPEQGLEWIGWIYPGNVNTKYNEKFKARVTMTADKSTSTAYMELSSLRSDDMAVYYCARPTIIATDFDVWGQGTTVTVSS VL: ELVMTQSPSSLSASVGDRVTITCKASQGVGTAVGWYQQKPGKAPKLLIYWASTRHTGVPDRFSGSGSGTDFTLAISSLQPEDIADYYCQQYSTYPFTFGGGTKVEIKR ; wanted: its EC50
Response: 1.03
